# tgt: Tyrosyl-tRNA synthetase, putative (Trypanosoma cruzi (strain CL Brener)) (UniProt Q4DSP6)
# Sequence (Q4DSP6 as listed by the source): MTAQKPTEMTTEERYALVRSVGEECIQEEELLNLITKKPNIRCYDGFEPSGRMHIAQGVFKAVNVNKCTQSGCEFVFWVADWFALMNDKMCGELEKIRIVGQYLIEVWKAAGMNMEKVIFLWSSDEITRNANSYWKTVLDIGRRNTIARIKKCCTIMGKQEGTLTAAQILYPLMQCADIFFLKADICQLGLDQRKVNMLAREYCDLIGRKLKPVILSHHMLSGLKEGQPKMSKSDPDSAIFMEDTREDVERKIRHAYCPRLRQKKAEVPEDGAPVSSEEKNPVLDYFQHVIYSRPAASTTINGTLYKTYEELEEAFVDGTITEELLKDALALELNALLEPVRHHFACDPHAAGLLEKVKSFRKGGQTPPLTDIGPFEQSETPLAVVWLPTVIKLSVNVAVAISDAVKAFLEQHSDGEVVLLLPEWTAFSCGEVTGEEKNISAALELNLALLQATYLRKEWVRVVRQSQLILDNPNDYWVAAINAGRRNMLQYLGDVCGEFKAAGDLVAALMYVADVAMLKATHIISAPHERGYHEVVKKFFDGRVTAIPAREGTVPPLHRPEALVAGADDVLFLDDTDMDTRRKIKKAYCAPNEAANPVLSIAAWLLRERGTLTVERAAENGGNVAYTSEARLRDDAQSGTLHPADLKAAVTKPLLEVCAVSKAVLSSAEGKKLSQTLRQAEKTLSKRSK
# method_notes: Trypanosoma cruzi tyrosyl tRNA synthetase (TcYRS) SOP
# Format: functional
# Design: scale not given: direction of the effect not stated beside the values
# test_settings: 30 µM
Please go through the items and note down their Percent Effect.
// units = %; emit number, no label

compound CNCCc1nc2cc(Cl)ccc2[nH]1 , Percent Effect observed: -6.17

compound Cc1c(CC(=O)N2CCN(CC(F)(F)F)CC2)nnn1-c1ccccc1 , Percent Effect observed: 8.64

compound O=C1N(Cc2cccnc2)CCC12CCCNC2 (stereo unspecified) , Percent Effect observed: 2.5

compound O=C(Cc1ccccc1)N1CCN(Cc2noc(C3CC3)n2)CC1 , Percent Effect observed: 15.2

compound Cc1cc(CN2C[C@@H]3CCCO[C@@H]3[C@H](Nc3ccccn3)C2)no1 , Percent Effect observed: 16.1

compound CN(CCc1ccc(F)cc1)Cc1nc2c(cnn2C)c(=O)[nH]1 , Percent Effect observed: 23.5

compound COC[C@]12COC[C@H]1CN(Cc1cccnc1OC)C2 , Percent Effect observed: 5.13

compound CN(Cc1cccnc1)[C@@H]1CN(CC2CC2)[C@@H]2CCCO[C@H]12 , Percent Effect observed: 5

compound CCCN1CCN(Cc2nccn2CC)C(C)C1 (stereo unspecified) , Percent Effect observed: 8.54

compound Cn1cc(CN2C[C@@H]3[C@@H](C2)OCC(=O)N3Cc2ccncc2)cn1 , Percent Effect observed: 17.9

compound CNC(=O)[C@@]12CCCN(c3ncccn3)[C@@H]1CN(C)C2 , Percent Effect observed: -1.28

====

Please go through the items and note down their Percent Effect.
# tgt: Chromo domain-containing protein 1 (Saccharomyces cerevisiae (strain ATCC 204508 / S288c) (Baker's yeast))
# method_notes: ScCHD-1 Enzyme Inhibition Assay; further: in the data most compounds retested in dose-response had high values
# Assay type: functional
# Parameters: scale not given: direction of the effect not stated beside the values
# test_settings: 30 µM
// units = %; emit number, no label

molecule O=C(COc1cccc(F)c1)N1C[C@@H](O)[C@H](N2CCCC2)C1 , Percent Effect observed: -18.1

molecule CC(=O)N1CCOCC2(CN(Cc3ccccn3)CCO2)C1 (stereo unspecified) , Percent Effect observed: -3.93

molecule CS(=O)(=O)N1CCC(C(=O)N2CCC3(CC2)OCCCO3)CC1 , Percent Effect observed: -10.8

molecule O=C(Nc1cccnc1)[C@H]1CN(Cc2nccs2)C[C@H]2OCC[C@@H]12 , Percent Effect observed: 2.83

molecule COc1ccccc1C1SCC(=O)Nc2n[nH]cc21 (stereo unspecified) , Percent Effect observed: -2.61

molecule c1ccc(N2CCCC3(CCN(Cc4nccs4)C3)C2)nc1 (stereo unspecified) , Percent Effect observed: -11.5

====

# Species on record: Homo sapiens
# method_notes: To identify inhibition of the IFN signalling (Jak-Stat) pathway via expression of an eGFP reporter gene under the control of an IFN-stimulated response element (ISRE) containing MxA promoter.
# Format: functional
# Set-up: scale not given: direction of the effect not stated beside the values
# test_settings: 30 µM
Rule for this label: rule met means Percent Effect is less than 10%; rule not met means Percent Effect is at least 10%.

Percent Effect under 10%? Item: Cn1c(=O)n(C)c2cc(C3SCC(=O)Nc4ccsc43)ccc21 (stereo unspecified)
rule not met

Percent Effect under 10%? Item: c1ccc(CN2C[C@@H]3CCCO[C@@H]3[C@H](Nc3ccccn3)C2)nc1
rule met

Percent Effect under 10%? Item: Cc1cccc(CN2CC[C@@H]3[C@@H]2CCN3C(=O)c2ccno2)n1
rule met

Percent Effect under 10%? Item: c1ccc(N2CCCC3(CCN(Cc4cccs4)C3)C2)nc1 (stereo unspecified)
rule not met

Percent Effect under 10%? Item: COc1cc(CNCC(O)c2ccc(F)c(F)c2)cc2c1OCO2 (stereo unspecified)
rule not met

Percent Effect under 10%? Item: Cc1n[nH]c2c1C(c1ccc(O)c(Cl)c1)SCC(=O)N2 (stereo unspecified)
rule not met

Percent Effect under 10%? Item: c1cncc(OC[C@@H]2CC[C@H]3[C@H](CCN3Cc3cccs3)O2)c1
rule met

Percent Effect under 10%? Item: COCC(=O)NC1CC2(CCN(CCF)CC2)Oc2ccccc21 (stereo unspecified)
rule not met

Percent Effect under 10%? Item: CS(=O)(=O)N1CCC(C(=O)N2CCC3(CC2)OCCCO3)CC1
rule not met

Percent Effect under 10%? Item: CCC(O)CN1CCN(C(=O)Cc2cc(Cl)ccc2OC)CC1 (stereo unspecified)
rule not met

Percent Effect under 10%? Item: CC[C@H]1NCCC[C@]12CCC(=O)N2Cc1ccncc1
rule met
